Tested on: galium
test: Test C postemergence
Type: in vivo, Galium aparine
condition: Postemergence, 125 g ai/ha; 0 to 100 scale (0 no effect, 100 complete control), 10 days
measured-metric: Plant response rating, Galium

Requested read-out: Plant response rating, Galium. Entry: COc1ncn(-c2cccc(C(=O)N3C[C@H](C)Oc4c(Cl)cccc43)c2)n1
90

Requested read-out: Plant response rating, Galium. Entry: C[C@H]1CN(C(=O)c2cccc(-n3cnc(OS(C)(=O)=O)n3)c2)c2cccc(Cl)c2O1
90

Requested read-out: Plant response rating, Galium. Entry: CCOC[C@H]1CN(C(=O)c2cc(-n3cnc(CC)n3)ccc2C)c2cccc(Cl)c2O1
100

Requested read-out: Plant response rating, Galium. Entry: CCOC[C@H]1CN(C(=O)c2cc(-n3cnc(C(C)C)n3)cc3c2OCCO3)c2cccc(Cl)c2O1
100

Requested read-out: Plant response rating, Galium. Entry: CCOC[C@H]1CN(C(=O)c2cc(-n3cnc(C(C)C)n3)ccc2OC)c2cccc(Cl)c2O1
90

Requested read-out: Plant response rating, Galium. Entry: CC(C)c1ncn(-c2cc(C(=O)N3CC(C(F)(F)F)Oc4c(Cl)cccc43)ccn2)n1 (racemic) [Compound 329]
60

Requested read-out: Plant response rating, Galium. Entry: COc1ncn(-c2cccc(C(=O)N3C[C@H](C)Oc4c(C)cccc43)c2)n1
80

Requested read-out: Plant response rating, Galium. Entry: Cc1ccc(-n2cnc(C(C)O)n2)cc1C(=O)N1CC(C)Oc2c(Cl)cccc21 (mixture of isomers)
100

Requested read-out: Plant response rating, Galium. Entry: Cc1cccc2c1OC(C(F)(F)F)CN2C(=O)c1ccnc(-n2cnc(C(C)C)n2)c1 (single isomer, unassigned) [Compound 328]
80

Requested read-out: Plant response rating, Galium. Entry: COC[C@H]1CN(C(=O)c2cc(-n3cnc(C(C)C)n3)cc3c2OCCO3)c2cccc(Cl)c2O1
100

Requested read-out: Plant response rating, Galium. Entry: CC(C)c1ncn(-c2cc(C(=O)N3C[C@H](C)Oc4c(Cl)cccc43)cnn2)n1
100

Requested read-out: Plant response rating, Galium. Entry: COC[C@H]1CN(C(=O)c2cc(-n3cnc(C(C)C)n3)ccc2OC)c2cccc(Cl)c2O1
100
